- Test target: 5-hydroxytryptamine receptor 2A (Homo sapiens)
- Sequence (P28223 whole entry): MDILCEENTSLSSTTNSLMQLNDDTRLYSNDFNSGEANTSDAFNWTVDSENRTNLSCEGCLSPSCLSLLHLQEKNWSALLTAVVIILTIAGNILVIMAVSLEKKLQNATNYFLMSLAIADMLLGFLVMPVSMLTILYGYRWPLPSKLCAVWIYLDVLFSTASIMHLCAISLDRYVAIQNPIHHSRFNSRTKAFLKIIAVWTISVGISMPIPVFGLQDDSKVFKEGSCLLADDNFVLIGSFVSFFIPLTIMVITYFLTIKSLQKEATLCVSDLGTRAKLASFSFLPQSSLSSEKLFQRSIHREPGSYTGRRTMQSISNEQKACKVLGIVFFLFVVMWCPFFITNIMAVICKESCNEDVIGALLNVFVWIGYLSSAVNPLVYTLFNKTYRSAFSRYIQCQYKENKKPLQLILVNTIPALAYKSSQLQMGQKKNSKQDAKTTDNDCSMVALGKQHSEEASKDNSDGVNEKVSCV
- Test summary: Displacement of [3H]Ketanserin from 5-HT2A receptor (unknown origin)
Measured property: Ki

Mol | Measured property | Observed measurement
Cn1cnc2c1c(=O)n(CCCN1CCN(C(c3ccccc3)c3ccccc3)CC1)c(=O)n2C | Ki | 58.6 nM
Cn1c(=O)c2c(nc(NCCCN3CCN(C(c4ccccc4)c4ccccc4)CC3)n2C)n(C)c1=O | Ki | 308 nM
Cn1c(=O)c2c(nc(N3CCN(C(c4ccccc4)c4ccccc4)CC3)n2C)n(C)c1=O | Ki | 22500 nM

---

- Test target: UniProt:P08908
- Sequence (P08908 whole entry): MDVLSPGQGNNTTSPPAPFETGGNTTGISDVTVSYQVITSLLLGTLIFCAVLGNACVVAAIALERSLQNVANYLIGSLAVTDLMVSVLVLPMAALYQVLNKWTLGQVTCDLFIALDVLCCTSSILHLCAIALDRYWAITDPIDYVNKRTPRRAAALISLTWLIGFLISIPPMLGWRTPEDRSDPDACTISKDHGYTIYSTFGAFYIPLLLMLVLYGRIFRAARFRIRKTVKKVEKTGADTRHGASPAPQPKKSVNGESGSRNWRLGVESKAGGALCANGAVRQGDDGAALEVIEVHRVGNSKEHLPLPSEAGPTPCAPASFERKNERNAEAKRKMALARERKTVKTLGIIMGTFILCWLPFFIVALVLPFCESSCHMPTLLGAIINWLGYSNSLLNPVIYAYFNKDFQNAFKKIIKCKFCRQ
List of Ki values.
Measured property: Ki (nM)

Mol | Observed measurement
Cn1c(=O)c2c(nc(NCCCN3CCN(c4ccccc4)CC3)n2C)n(C)c1=O | 385
COc1ccccc1N1CCN(CCCn2c(=O)ccn3c4c(=O)n(C)c(=O)n(C)c4nc23)CC1 | 10.4
CCCCn1c(NCCCN2CCN(c3ccccc3)CC2)nc2c1c(=O)n(C)c(=O)n2C | 100
COc1ccccc1N1CCN(CCCN2C(=O)CCn3c2nc2c3c(=O)n(C)c(=O)n2C)CC1 | 21.6
Cn1c(=O)c2c(nc3n2CCC(=O)N3CCCN2CCN(c3ncccn3)CC2)n(C)c1=O | 42
Cn1c(=O)c2c(nc3n2CCCN3CCCCN2CCN(c3ccccc3)CC2)n(C)c1=O | 2.1
CCOC(=O)Cn1c(NCCCN2CCN(c3ccccc3)CC2)nc2c1c(=O)n(C)c(=O)n2C | 592

---

- Test target: 5-hydroxytryptamine receptor 1A (Rattus norvegicus)
- Test summary: Displacement of [3H]8-OH-DPAT from 5-HT1A receptor in Rattus norvegicus (rat) hippocampus
- Test parameters: read-out: Ki
pKi: −log10 of the molar value.
List of pKi values.

Mol | pKi
Cn1c(=O)c2c(nc(NCCCN3CCN(C(c4ccccc4)c4ccccc4)CC3)n2C)n(C)c1=O | 5.80
Cn1c(=O)c2c(nc(N3CCN(C(c4ccccc4)c4ccccc4)CC3)n2C)n(C)c1=O | 4.97
Cn1cnc2c1c(=O)n(CCCN1CCN(C(c3ccccc3)c3ccccc3)CC1)c(=O)n2C | 5.70

---

- Test target: 5-hydroxytryptamine receptor 2A (Homo sapiens)
- Test summary: Binding affinity to 5-HT2A (unknown origin)
List of Ki values.
Measured property: Ki (nM)

Mol | Observed measurement
Cn1c(=O)c2c(nc3n2CCCN3CCCN2CCN(c3ncccn3)CC2)n(C)c1=O | 8150
Cn1c(=O)c2c(nc(NCCCN3CCN(c4ccccc4)CC3)n2C)n(C)c1=O | 197
COc1ccccc1N1CCN(CCCN2C(=O)CCCn3c2nc2c3c(=O)n(C)c(=O)n2C)CC1 | 5010
CCOC(=O)Cn1c(NCCCN2CCN(c3ccccc3)CC2)nc2c1c(=O)n(C)c(=O)n2C | 1010
Cn1c(=O)c2c(nc3n2CCCN3CCCN2CCN(c3ccccc3)CC2)n(C)c1=O | 422
COc1ccccc1N1CCN(CCCN2C(=O)CCn3c2nc2c3c(=O)n(C)c(=O)n2C)CC1 | 4220
Cn1c(=O)c2c(nc3n2CCC(=O)N3CCCN2CCN(c3cccc(Cl)c3)CC2)n(C)c1=O | 182
Cn1c(=O)c2c(nc3n2CCCCN3CCCN2CCN(c3cccc(Cl)c3)CC2)n(C)c1=O | 330
Cn1c(=O)c2c(nc3n2CCCN3CCCCN2CCN(c3ccccc3)CC2)n(C)c1=O | 243
Cn1c(=O)c2c(nc3n2CCCC(=O)N3CCCN2CCN(c3ncccn3)CC2)n(C)c1=O | 38800
COc1ccccc1N1CCN(CCCn2c(=O)ccn3c4c(=O)n(C)c(=O)n(C)c4nc23)CC1 | 3880

---

Ki, 5-hydroxytryptamine receptor 2A (Rattus norvegicus, UniProt P14842): measured values

Mol | Test target | Ki, µM
Cn1c(=O)c2c(nc(NCCCN3CCN(c4ccccc4)CC3)n2CCCc2ccccc2)n(C)c1=O | 5-hydroxytryptamine receptor 2A (Rattus norvegicus, UniProt P14842) | 0.445
CCOC(=O)Cn1c(NCCCN2CCN(c3ccccc3)CC2)nc2c1c(=O)n(C)c(=O)n2C | 5-hydroxytryptamine receptor 2A (Rattus norvegicus, UniProt P14842) | 0.449
Cn1c(=O)c2c(nc3n(CCCCN4CCN(c5ccccc5)CC4)c(=O)ccn23)n(C)c1=O | 5-hydroxytryptamine receptor 2A (Rattus norvegicus, UniProt P14842) | 1.99
COc1ccccc1N1CCN(CCCNc2nc3c(c(=O)n(C)c(=O)n3C)n2Cc2ccccc2)CC1 | 5-hydroxytryptamine receptor 2A (Rattus norvegicus, UniProt P14842) | 0.55
Cn1c(=O)c2c(nc(NCCCN3CCN(c4cccc(Cl)c4)CC3)n2CCCc2ccccc2)n(C)c1=O | 5-hydroxytryptamine receptor 2A (Rattus norvegicus, UniProt P14842) | 0.346

---

- Test target: 5-hydroxytryptamine receptor 1A (Rattus norvegicus)
- Sequence (P19327 whole entry): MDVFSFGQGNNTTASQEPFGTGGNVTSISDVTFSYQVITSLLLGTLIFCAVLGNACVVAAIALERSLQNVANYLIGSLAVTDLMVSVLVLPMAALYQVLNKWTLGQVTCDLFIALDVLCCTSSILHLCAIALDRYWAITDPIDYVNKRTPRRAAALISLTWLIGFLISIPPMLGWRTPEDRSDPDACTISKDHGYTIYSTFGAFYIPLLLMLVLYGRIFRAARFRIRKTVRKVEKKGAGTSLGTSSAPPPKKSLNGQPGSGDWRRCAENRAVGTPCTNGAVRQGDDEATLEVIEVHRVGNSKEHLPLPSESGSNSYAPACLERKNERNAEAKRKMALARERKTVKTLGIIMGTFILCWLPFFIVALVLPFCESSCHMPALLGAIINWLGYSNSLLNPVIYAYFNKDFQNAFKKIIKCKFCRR
- Test summary: Displacement of [3H]8-OH-DPAT from 5-HT1A receptor in Rattus norvegicus (rat) hippocampus
- Test parameters: read-out: pKi (converted)
Entries are sorted into classes by Ki as follows: A: < 10 nM; B: ≥ 10 nM and < 50 nM; C: ≥ 50 nM

Compound | Class label
Cn1c(=O)c2c(nc(NCCCN3CCN(c4cccc(Cl)c4)CC3)n2CCc2ccccc2)n(C)c1=O | C
COc1ccccc1N1CCN(CCCCn2c(=O)ccn3c4c(=O)n(C)c(=O)n(C)c4nc23)CC1 | A
CCOC(=O)Cn1c(NCCCN2CCN(c3ccccc3)CC2)nc2c1c(=O)n(C)c(=O)n2C | C
Cn1c(=O)c2c(nc3n(CCCCN4CCN(c5ccccc5)CC4)c(=O)ccn23)n(C)c1=O | B
CC(c1ccccc1)n1c(NCCCN2CCN(c3ccccc3)CC2)nc2c1c(=O)n(C)c(=O)n2C (stereo not given) | C
Cn1c(=O)c2c(nc3n(CCCCN4CCN(c5cccc(Cl)c5)CC4)c(=O)ccn23)n(C)c1=O | A
COc1ccccc1N1CCN(CCCNc2nc3c(c(=O)n(C)c(=O)n3C)n2CCCc2ccccc2)CC1 | A
COc1ccccc1N1CCN(CCCNc2nc3c(c(=O)n(C)c(=O)n3C)n2Cc2ccccc2)CC1 | B

---

- Test target: 5-hydroxytryptamine receptor 2A (Homo sapiens)
- Test summary: Binding affinity to 5-HT2A (unknown origin)
pKi: −log10 of the molar value.
Could you label it y if measured pKi is 6 or higher, and n otherwise?

Mol | Class label
Cn1c(=O)c2c(nc3n2CCC(=O)N3CCCN2CCN(c3ncccn3)CC2)n(C)c1=O | n
COc1ccccc1N1CCN(CCCN2CCCn3c2nc2c3c(=O)n(C)c(=O)n2C)CC1 | y
Cn1c(=O)c2c(nc3n2CCCC(=O)N3CCCN2CCN(c3cccc(Cl)c3)CC2)n(C)c1=O | y
COc1ccccc1N1CCN(CCCN2CCCCn3c2nc2c3c(=O)n(C)c(=O)n2C)CC1 | y
Cn1c(=O)c2c(nc3n2CCCN3CCCN2CCN(c3cccc(Cl)c3)CC2)n(C)c1=O | y
Cn1c(=O)c2c(nc3n2CCCCN3CCCN2CCN(c3ccccc3)CC2)n(C)c1=O | y
CCCCn1c(NCCCN2CCN(c3ccccc3)CC2)nc2c1c(=O)n(C)c(=O)n2C | y
Cn1c(=O)c2c(nc3n(CCCN4CCN(c5ccccc5)CC4)c(=O)ccn23)n(C)c1=O | n
